Can you tell me growth inhibition for the items I'm about to list?
- run description: inhibition of 3D7 malaria parasite growth – strain 3D7 (AID 2306);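 further: 0% = DMSO wells and 100% = chloroquine plus artemisinin control wells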
- condition: P. falciparum 3D7 erythrocytic growth, LDH absorbance, 72 h; at 2 µM; stronger effect = higher value
Form entry: value (%) — number only.

Recorded growth inhibition (compound "CC[C@H]1CN(CCCC(=O)c2ccccc2)CC[C@H]1CCCc1ccnc2ccc(OC(=O)c3ccccc3)cc12" ): 83

So, "Cc1cccc2[nH]c(-c3ccc(-c4cccc(CN5CCN(c6ccncc6)CC5)c4)cc3)nc12" ? Its growth inhibition was 101

Lab book: growth inhibition of "O=[N+]([O-])c1cccc(CNC2CCN(Cc3ccc4ccccc4c3)CC2)c1" noted as 100

Noted for "CCCN(CCCCCCNCCc1ccc(Cl)cc1)CCc1ccc(O)c(O)c1" : its growth inhibition reads 91

Looking up "Fc1cccc(COc2ccc(Nc3ncnc4ccc(C#C[C@H]5CCCN5)cc34)cc2Cl)c1" , I see its growth inhibition listed as 91

Value of growth inhibition reported for the compound "CCOc1cc(CC)ccc1C1CCN(CCN2CCC(NC(=O)c3ccc(-c4ccc(C(C)=O)cc4)cc3)CC2)CC1" is 100

So, "COc1ccc(CNC2Cc3ccccc3C2)cc1-c1ccc(S(=O)(=O)NCCN2CCCC2)s1" ? Its growth inhibition was 101

Sample O=C(Nc1cccc(C(F)(F)F)c1)c1ccc(S(=O)(=O)NCC2CCCN(CC3CCCCC3)C2)cc1 (stereo not given) ; growth inhibition observed: 95

Data point: OC(CNCc1ccccc1OCc1ccccc1)c1cc(C(F)(F)F)cc(C(F)(F)F)c1 (stereo not given) ; growth inhibition = 100

Entry "C[C@@H](COc1ccc(-c2ccccc2)cc1)CON1C(N)=NC(N)=NC1(C)C" ; growth inhibition = 96

The compound listed as COc1cc(Nc2nccc(N3CCC(NC(=O)Nc4cccc(C(C)=O)c4)C3)n2)cc(OC)c1OC (stereo not given) shows growth inhibition equal to 91

Form: compound = "CCC(CC)n1c(COC)cc2c3c(N)nc(N)nc3ccc21" ; growth inhibition = 95

// field: growth inhibition; key: "c1ccc2oc(-c3cc4ccncc4cc3OC3CCNCC3)cc2c1" ; value = 100

Lab note: measured growth inhibition of "O=C(Cn1nc(Br)nc1[N+](=O)[O-])NCC1CCCCC1" was 96

// field: growth inhibition; key: "O=C(Nc1ccc(C(F)(F)F)cc1)c1cccc(S(=O)(=O)NC2CCN(CC3CCCCC3)CC2)c1" ; value = 99

# compound "Clc1ccc2c(NN=Cc3ccco3)ccnc2c1" ; its growth inhibition = 100

Briefly, growth inhibition measured for Cc1cc(C2CCN(CCCCNC(=O)c3ccc(-c4ccc(C(F)(F)F)cc4)cc3)CC2)c(C)cc1OCCOC1CCCCO1 (stereo not given) : 95

Form: compound = "CC(=O)Nc1ccc(OCCN(CC(C)C)c2ccc(C(F)(F)F)c(C#N)c2)c(Cl)c1" ; growth inhibition = 96

Please fill in: growth inhibition reported for NC1=NC(c2ccccc2)N(OCc2ccccc2)C(N)=N1 (stereo not given) = 96

GET /value?item= CC(Cc1ccc(OCCN2CCN(c3ccccc3)CC2)cc1)NCC(O)c1cccc(Cl)c1F (stereo not given) &field=growth inhibition returns 92

The origin of these recorded values is PubChem BioAssay.
